Target: thrombin (alpha-thrombin) (UniProt P00734;P00734 328-363;364-622)
Experiment: competition (FAM fluorescence displacement); TBA-FAM Kd fixed at 15 nM; 100 mM KCl; Fluorescence assays: 10 mM sodium cacodylate pH 7.2, 100 mM KCl, 20 °C, 20 nM FAM-aptamer (100 nM thrombin in displacement); EMSA: 1xTBE pH 8.3, 100 mM KCl (ann)
pKd: −log10 of the molar value.
Readout kind: pKd

* GGTTGGTGTGGTTGG (structured_DNA) [TBA] | 7.63
